- PROCEDURE_SUMMARY: ^153 Gd biodistribution, IV study in rats
- Assay type: in vivo, male rats
- RUN_CONDITIONS: rat, IV, two hours post injection

SMILES_STRUCTURE: O=P(O)(O)CN(CCN(CP(=O)(O)O)CP(=O)(O)O)CP(=O)(O)O.[Gd]
UNIT_ANNOTATION: % activity per organ
Bladder & Urine: 45.8
--
SMILES_STRUCTURE: [153Gd+3].[Cl-].[Cl-].[Cl-]
UNIT_ANNOTATION: % activity per organ
Bladder & Urine: 12.5
--
SMILES_STRUCTURE: CC(O)(P(=O)(O)O)P(=O)(O)O.[Gd]
UNIT_ANNOTATION: % activity per organ
Bladder & Urine: 24.0
--
SMILES_STRUCTURE: O=P(O)(O)CP(=O)(O)O.[Gd]
UNIT_ANNOTATION: % activity per organ
Bladder & Urine: 1.0
